- Measurement Description: Cytotoxicity evaluation
- Conditions: human, Cytotoxicity (%), short treatment in the absence of S9 mix; 10 mmol/L
Measure: cytotoxicity at 10 mmol/L
Put down the number, then write its unit next to it.

Record CCCCC/C=C\C/C=C\CCCCCCCC(=O)OCC1(C)COC1 [NKS-5] . Reported cytotoxicity at 10 mmol/L: 1.32%

---

- Measurement Description: Cytotoxicity evaluation
- Conditions: human, Cytotoxicity (%), short treatment in the absence of S9 mix; 2.5 mmol/L
Measure: cytotoxicity at 2.5 mmol/L (%)
Only the number, expressed in %, is required.

Record `CCCCC/C=C\C/C=C\CCCCCCCC(=O)OCC1(C)COC1` . Reported cytotoxicity at 2.5 mmol/L: -5.78
